System: red blood cells
TEST: Hemolysis assay
Type: cell-based, Sprague-Dawley mouse
Where a SMILES comes first, the peptide text is derived from it. [ ]: non-standard residue; d: D form. Nspe = C[C@H](NCC(=O)O)c1ccccc1; Nphe = O=C(O)CNCc1ccccc1; Nlys = NCCCCNCC(=O)O
OBSERVATION_TYPE: HC10 (µM)
The response must be a number in µM with no trailing unit.

# input Can you look up the measured HC10 of C[C@@H](c1ccccc1)N(CC(N)=O)C(=O)CN(CCCCN)C(=O)CN(C(=O)CN(C(=O)CN(CCCCN)C(=O)CN(C(=O)CN(CCCCN)C(=O)CN(CCCCN)C(=O)CN(C(=O)CN(C(=O)CN(CCCCN)C(=O)CN(C(=O)CNCCc1c[nH]c2ccccc12)[C@@H](C)c1ccccc1)[C@@H](C)c1ccccc1)[C@@H](C)c1ccccc1)[C@@H](C)c1ccccc1)[C@@H](C)c1ccccc1)[C@@H](C)c1ccccc1 [Peptoid 62] for me?
# output 36.2

# input // query: C[C@@H](c1ccccc1)N(CC(=O)N(CCCCN)CC(=O)N(CC(=O)N(CC(=O)N(CCCCN)CC(=O)N(CC(=O)N(CC(=O)N(CCCCN)CC(=O)N(CC(=O)N(CC(N)=O)Cc1ccccc1)Cc1ccccc1)[C@@H](C)c1ccccc1)[C@@H](C)c1ccccc1)[C@@H](C)c1ccccc1)[C@@H](C)c1ccccc1)C(=O)CN(C(=O)CNCCCCN)[C@@H](C)c1ccccc1 [Peptoid 44] (H-[Nlys][Nspe][Nspe][Nlys][Nspe][Nspe][Nlys][Nspe][Nspe][Nlys][Nphe][Nphe]-NH2)
# output 6.3

---

Test system: red blood cells
TEST: Hemolysis assay
Type: cell-based, Sprague-Dawley mouse
Where a SMILES comes first, the peptide text is derived from it. [ ]: non-standard residue; d: D form. Gly(N(CH2)2(3-indolyl)) = O=C(O)CNCCc1c[nH]c2ccccc12; Nspe = C[C@H](NCC(=O)O)c1ccccc1; Nphe = O=C(O)CNCc1ccccc1; Nlys = NCCCCNCC(=O)O
OBSERVATION_TYPE: Hmax (100 μM) (%)
// units = %; emit number, no label

# input Find the measured Hmax (100 μM): item C[C@@H](c1ccccc1)N(CC(=O)N(CCCCN)CC(=O)N(CC(=O)N(CC(=O)N(CCCCN)CC(=O)N(CC(=O)N(CC(=O)N(CCCCN)CC(=O)N(CCc1c[nH]c2ccccc12)CC(=O)N(CCc1c[nH]c2ccccc12)CC(N)=O)[C@@H](C)c1ccccc1)[C@@H](C)c1ccccc1)[C@@H](C)c1ccccc1)[C@@H](C)c1ccccc1)C(=O)CN(CCCCN)C(=O)CNCCCCN [Peptoid 31] (H-[Nlys][Nlys][Nspe][Nlys][Nspe][Nspe][Nlys][Nspe][Nspe][Nlys][Gly(N(CH2)2(3-indolyl))][Gly(N(CH2)2(3-indolyl))]-NH2) , target or system red blood cells.
# output 18.4

# input Also need `C[C@@H](c1ccccc1)N(CC(N)=O)C(=O)CN(CCCCN)C(=O)CN(CCCCN)C(=O)CN(C(=O)CN(C(=O)CN(CCCCN)C(=O)CN(CCc1c[nH]c2ccccc12)C(=O)CN(C(=O)CN(CCCCN)C(=O)CN(C(=O)CN(C(=O)CNCCCCN)[C@@H](C)c1ccccc1)[C@@H](C)c1ccccc1)[C@@H](C)c1ccccc1)[C@@H](C)c1ccccc1)[C@@H](C)c1ccccc1` , thanks.
# output 1.5

# input Same question, `C[C@@H](c1ccccc1)N(CC(N)=O)C(=O)CN(C(=O)CN(CCCCN)C(=O)CN(C(=O)CN(C(=O)CN(CCCCN)C(=O)CN(C(=O)CN(CCCCN)C(=O)CN(CCCCN)C(=O)CN(CCc1c[nH]c2ccccc12)C(=O)CN(CCc1c[nH]c2ccccc12)C(=O)CNCCCCN)[C@@H](C)c1ccccc1)[C@@H](C)c1ccccc1)[C@@H](C)c1ccccc1)[C@@H](C)c1ccccc1` this time
# output 8.5

# input Subsequent entry: `C[C@@H](c1ccccc1)N(CC(N)=O)C(=O)CN(CCCCN)C(=O)CN(C(=O)CN(C(=O)CN(CCCCN)C(=O)CN(C(=O)CN(CCCCN)C(=O)CN(CCCCN)C(=O)CN(C(=O)CN(C(=O)CN(CCCCN)C(=O)CN(C(=O)CNCCc1c[nH]c2ccccc12)[C@@H](C)c1ccccc1)[C@@H](C)c1ccccc1)[C@@H](C)c1ccccc1)[C@@H](C)c1ccccc1)[C@@H](C)c1ccccc1)[C@@H](C)c1ccccc1`
# output 44.8

# input What about this compound? C[C@@H](c1ccccc1)N(CC(=O)N(CCCCN)CC(=O)N(CCc1c[nH]c2ccccc12)CC(=O)N(CCc1c[nH]c2ccccc12)CC(N)=O)C(=O)CN(CCCCN)C(=O)CN(CCCCN)C(=O)CN(C(=O)CN(C(=O)CN(CCCCN)C(=O)CN(Cc1ccccc1)C(=O)CN(Cc1ccccc1)C(=O)CNCCCCN)[C@@H](C)c1ccccc1)[C@@H](C)c1ccccc1 [Peptoid 41] (H-[Nlys][Nphe][Nphe][Nlys][Nspe][Nspe][Nlys][Nlys][Nspe][Nlys][Gly(N(CH2)2(3-indolyl))][Gly(N(CH2)2(3-indolyl))]-NH2)
# output 7.1
